Kindly state pKi for each of the entries shown.
target: A9UPE9 PDZ (A9UPE9_MONBE PDZ domain, residues 7-98) (Monosiga brevicollis); experiment: fluorescence polarisation
// pKi here means minus log10 of the molar concentration (mol/L)

Problem: Tell me the measured pKi of A9UXE1 peptide (QDETAL) , please.
Solution: 3.34

Problem: Tell me the measured pKi of B1AR peptide (ASESKV) , please.
Solution: 4.02

Problem: Tell me the measured pKi of A9UP44 peptide (QSESRL) , please.
Solution: 4.19

Problem: Tell me the measured pKi of A9V7Z4 peptide (EDETAL) , please.
Solution: 3.24

Problem: Tell me the measured pKi of A9UWP5_MONVE peptide (GSESSV) , please.
Solution: 3.31

Problem: Tell me the measured pKi of BPIX peptide (WDETNL) , please.
Solution: 3.48

Problem: Tell me the measured pKi of A9V6G5_MONBE peptide (HRESTV) , please.
Solution: 4.01

Problem: Tell me the measured pKi of TYRP1 peptide (PNQSVV) , please.
Solution: 4.01

Problem: Tell me the measured pKi of DLL1/DLL4 peptide (VIATEV) , please.
Solution: 3.62
